# Tested on: MDA-MB-468
# experimental_protocol: Anticancer activity against human MDA-MB-468 cells assessed as cell growth at 0.1 uM incubated for 48 hrs by SRB assay
# Format: functional
# applied_conditions: read-out: Activity
Below, each entry is listed alongside its reported growth at 0.1 µM.
property_measured: growth at 0.1 µM (%)

[[record]]
smi = "Cc1cc(C)n(C(=O)CCn2nc(C)c(Cl)c2C)n1"
reading = 100

[[record]]
smi = "Cc1sc2[nH]c(CNc3ccc(F)cc3)nc(=O)c2c1C"
reading = 99.2

[[record]]
smi = "Cc1nn(C[C@@H](O)COc2ccc3c(C)cc(=O)oc3c2)c(C)c1C"
reading = 100

[[record]]
smi = "Nc1cc(-c2cc3cc(F)ccc3[nH]2)ccc1F"
reading = 100

[[record]]
smi = "Cc1cc(C)cc(O[C@H](C)C(=O)Nc2ccc(F)c([N+](=O)[O-])c2)c1"
reading = 99.1

[[record]]
smi = "Cc1cc(C)n2ncc(C(=O)NCc3ccc(Cl)cc3)c2n1"
reading = 90.9


---

Recorded growth at 100 µM for the following compounds
# Tested on: NCI-H226
# experimental_protocol: Anticancer activity against human NCI-H226 cells assessed as cell growth at 100 uM incubated for 48 hrs by SRB assay
# Assay type: functional
# applied_conditions: read-out: Activity
Where a name gives a salt, the structure may show the parent alone.
property_measured: growth at 100 µM (%)

[[record]]
compound = "COc1cccc2c1C(=O)c1c(O)c3c(c(O)c1C2=O)C[C@@](O)(C(=O)CO)C[C@@H]3O[C@H]1C[C@H](N)[C@H](O)[C@H](C)O1 [DOXORUBICIN HYDROCHLORIDE]"
property_measured = "growth at 100 µM"
unit_of_measurement = "%"
reading = -38.3

[[record]]
compound = "Cc1cc(C)n2ncc(C(=O)NCc3ccc(Cl)cc3)c2n1"
property_measured = "growth at 100 µM"
unit_of_measurement = "%"
reading = 58.3

[[record]]
compound = "Cc1cc(C)n(C(=O)CCn2nc(C)c(Cl)c2C)n1"
property_measured = "growth at 100 µM"
unit_of_measurement = "%"
reading = 55.6

[[record]]
compound = "NC(=O)c1c(NC(=O)Cc2ccc(F)cc2)sc2c1CCCC2"
property_measured = "growth at 100 µM"
unit_of_measurement = "%"
reading = 33

[[record]]
compound = "Cc1ccc(-c2cc3cc(F)ccc3[nH]2)cc1N"
property_measured = "growth at 100 µM"
unit_of_measurement = "%"
reading = 90

[[record]]
compound = "Cc1cc(C)n(C(=O)CNc2ccccc2Cl)n1"
property_measured = "growth at 100 µM"
unit_of_measurement = "%"
reading = 63.6

[[record]]
compound = "Cc1nn(C[C@@H](O)COc2ccc3c(C)cc(=O)oc3c2)c(C)c1C"
property_measured = "growth at 100 µM"
unit_of_measurement = "%"
reading = 49.1

[[record]]
compound = "Cc1ccc(-c2cc(C(N)=O)c3cc(Cl)ccc3n2)o1"
property_measured = "growth at 100 µM"
unit_of_measurement = "%"
reading = 39.9

[[record]]
compound = "Cc1cc(C)cc(O[C@H](C)C(=O)Nc2ccc(F)c([N+](=O)[O-])c2)c1"
property_measured = "growth at 100 µM"
unit_of_measurement = "%"
reading = 58.2

[[record]]
compound = "Nc1cc(-c2cc3cc(F)ccc3[nH]2)ccc1F"
property_measured = "growth at 100 µM"
unit_of_measurement = "%"
reading = 30.2

[[record]]
compound = "Cc1sc2[nH]c(CNc3ccc(F)cc3)nc(=O)c2c1C"
property_measured = "growth at 100 µM"
unit_of_measurement = "%"
reading = 51.9

[[record]]
compound = "C[C@H](Oc1ccc(Cl)cc1)C(=O)Nc1sc2c(c1C(N)=O)CCCC2"
property_measured = "growth at 100 µM"
unit_of_measurement = "%"
reading = 61.9


Value source: ChEMBL document CHEMBL5257023
